Tested on: HepG2
test description: cytotoxicity call (relative viability < 0.9)
condition: 10 µM
In all, about 39,000 compounds went through this assay and about 3,300 (8.5%) were called active. This excerpt belongs to a sample that is enriched for actives.
Valid outcomes are listed here; reply with one: true (1) for active, false (0) for inactive

The following molecules have reported results that may help.
[
  {
    "query smiles": "COc1ccc(NC(=O)Nc2ccc3c(c2)[C@H]2C[C@H](CC(=O)NCc4ccncc4)O[C@@H](CO)[C@H]2O3)cc1",
    "label": "false (0)"
  },
  {
    "query smiles": "C[C@@H]1CN([C@@H](C)CO)C(=O)c2cc(NS(=O)(=O)c3ccc(F)cc3)ccc2O[C@@H](C)CCCCO[C@@H]1CN(C)Cc1ccc(C(F)(F)F)cc1",
    "label": "false (0)"
  },
  {
    "query smiles": "C[C@H](CO)N1C[C@H](C)[C@H](CN(C)C(=O)NC2CCCCC2)OCc2ccccc2-c2c(n(C)c3ccccc23)C1=O",
    "label": "true (1)"
  },
  {
    "query smiles": "C[C@H](CO)N1C[C@H](C)[C@@H](CN(C)Cc2ccncc2)Oc2c(NC(=O)c3ccncc3)cccc2C1=O",
    "label": "false (0)"
  },
  {
    "query smiles": "CNC[C@@H]1OCCCC[C@@H](C)Oc2ccc(NC(=O)c3ccncc3)cc2C(=O)N([C@H](C)CO)C[C@@H]1C",
    "label": "false (0)"
  }
]

**Q:** I'd appreciate the recorded outcome for `Cc1ccc(S(=O)(=O)Nc2ccc3c(c2)C(=O)N([C@H](C)CO)C[C@@H](C)[C@@H](CN(C)Cc2ccc(C(F)(F)F)cc2)OCCCC[C@H](C)O3)cc1` from this test.
**A:** true (1)

**Q:** Hey, what did the test say about `COc1cc2c(cc1OC)Cc1cc(OC)c(OC)cc1Cc1cc(OC)c(OC)cc1C2` ?
**A:** false (0)

**Q:** Which outcome was assigned to `C[C@@H]1CN([C@@H](C)CO)C(=O)c2cc(C#CCc3ccccc3)cnc2O[C@@H]1CN(C)C(=O)C1CCOCC1` in this test?
**A:** false (0)

**Q:** State the result this test recorded for `Cc1ccc(S(=O)(=O)Nc2ccc3c(c2)C(=O)N([C@H](C)CO)C[C@@H](C)[C@H](CN(C)Cc2ccc(C(F)(F)F)cc2)OCCCC[C@@H](C)O3)cc1` .
**A:** true (1)

Just for reference, the antibiotic and cytotoxicity screens of Wong et al. (2023) is where these values come from.
